# Assay explanation: Average particle size and polydispersity index of lipid nanoparticles (dynamic light scattering)
# Format: physicochemical
# Condition description: Table 1; Fluc mRNA-loaded lipid nanoparticles; TxT/DSPC/chol/PEG-DMG=50/15/35/1.5 (mol%)
# Procedure: The average particle size (number average value), ζ-average particle size, and polydispersity index (PdI) of the lipid nanoparticles in PBS(-) (pH 7.4), and the zeta potential in 10 mM HEPES buffer (pH 7.4) were measured using an analyzer "Zetasizer Nano ZS ZEN3600" (manufactured by Malvern) utilizing dynamic light scattering.
Recorded metric: ζ-average particle size (nm)
Please give a number only; it is taken to be in nm.

Some compounds with recorded ζ-average particle size:
CCCCN(CCCC)C(=O)CCCC(=O)OCC(COC(=O)CCCC(=O)N(CCCC)CCCC)(COC(=O)CCCC(=O)N(CCCC)CCCC)NC(=O)CCN1CCCCC1 [TxT-5-5A8] : 92.9
CCCCCCN(CCCCCC)C(=O)CCCC(=O)OCC(COC(=O)CCCC(=O)N(CCCCCC)CCCCCC)(COC(=O)CCCC(=O)N(CCCCCC)CCCCCC)NC(=O)CCN1CCCCC1 [TxT-5-5A12] : 155.2
CCCCCCCCN(CCCCCCCC)C(=O)CCCC(=O)OCC(COC(=O)CCCC(=O)N(CCCCCCCC)CCCCCCCC)(COC(=O)CCCC(=O)N(CCCCCCCC)CCCCCCCC)NC(=O)CCN1CCCCC1 [TxT-5-5A16] : 85.6
CCCCCCCN(CCCCCCC)C(=O)CCCC(=O)OCC(COC(=O)CCCC(=O)N(CCCCCCC)CCCCCCC)(COC(=O)CCCC(=O)N(CCCCCCC)CCCCCCC)NC(=O)CCN1CCCCC1 [TxT-5-5A14] : 106.2
CCCCCN(CCCCC)C(=O)CCCC(=O)OCC(COC(=O)CCCC(=O)N(CCCCC)CCCCC)(COC(=O)CCCC(=O)N(CCCCC)CCCCC)NC(=O)CCN1CCCCC1 [TxT-5-5A10] : 426.0

Q: Which ζ-average particle size is listed for CCCCCCC(CCCC)CNC(=O)CCCC(=O)OCC(COC(=O)CCCC(=O)NCC(CCCC)CCCCCC)(COC(=O)CCCC(=O)NCC(CCCC)CCCCCC)NC(=O)CCN1CCCCC1 (stereo not drawn) [TxT-5-5A12β] ?
Ans: 111.9

Q: Look up ζ-average particle size for this compound: CCCCC(CC)CNC(=O)CCCC(=O)OCC(COC(=O)CCCC(=O)NCC(CC)CCCC)(COC(=O)CCCC(=O)NCC(CC)CCCC)NC(=O)CCN1CCCCC1 (stereo not drawn) [TxT-5-5A8β]
Ans: 255.9
